- TESTED_TARGET: USP7 (Homo sapiens (Human), UniProt Q93009)
- Sequence (Q93009 whole entry): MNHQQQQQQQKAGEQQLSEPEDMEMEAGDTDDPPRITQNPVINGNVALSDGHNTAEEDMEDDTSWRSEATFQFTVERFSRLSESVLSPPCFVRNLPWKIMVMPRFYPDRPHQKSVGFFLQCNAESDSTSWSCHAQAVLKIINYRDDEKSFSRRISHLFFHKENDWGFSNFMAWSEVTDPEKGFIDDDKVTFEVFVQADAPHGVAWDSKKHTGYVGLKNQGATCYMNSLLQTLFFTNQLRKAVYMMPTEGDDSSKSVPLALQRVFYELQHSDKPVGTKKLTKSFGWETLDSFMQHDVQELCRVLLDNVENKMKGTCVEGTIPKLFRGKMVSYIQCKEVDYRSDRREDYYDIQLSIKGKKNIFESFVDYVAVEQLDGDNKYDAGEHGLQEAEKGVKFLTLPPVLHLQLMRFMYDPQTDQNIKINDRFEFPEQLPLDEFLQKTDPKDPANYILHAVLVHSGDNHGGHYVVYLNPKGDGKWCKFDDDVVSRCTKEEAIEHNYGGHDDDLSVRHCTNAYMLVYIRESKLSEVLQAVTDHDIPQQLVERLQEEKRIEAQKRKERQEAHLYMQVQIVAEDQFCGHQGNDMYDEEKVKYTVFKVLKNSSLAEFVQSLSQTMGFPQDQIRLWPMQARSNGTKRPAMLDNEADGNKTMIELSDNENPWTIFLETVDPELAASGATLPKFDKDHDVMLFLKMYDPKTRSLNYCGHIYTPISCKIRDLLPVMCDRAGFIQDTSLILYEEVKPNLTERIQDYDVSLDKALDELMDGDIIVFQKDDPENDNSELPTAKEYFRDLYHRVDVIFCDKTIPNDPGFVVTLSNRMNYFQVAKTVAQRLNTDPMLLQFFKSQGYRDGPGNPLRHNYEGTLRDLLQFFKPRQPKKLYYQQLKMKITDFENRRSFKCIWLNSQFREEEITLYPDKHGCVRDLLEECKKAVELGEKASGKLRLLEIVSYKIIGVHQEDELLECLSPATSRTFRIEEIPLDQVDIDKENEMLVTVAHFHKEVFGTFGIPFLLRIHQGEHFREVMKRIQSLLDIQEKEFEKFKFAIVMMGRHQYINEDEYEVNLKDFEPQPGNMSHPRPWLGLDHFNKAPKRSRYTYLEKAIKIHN
- EXPERIMENT_SUMMARY: USP7 fluorescence polarisation (FP) assay with ubiquitin-Lys-TAMRA substrate
- Assay type: biochemical
- CONDITION_SET: biochemical inhibition; unit not given in Table 3b (Table 1 and key of Table 3a use μM); read-out: USP7 IC50 activity (Table 3b)
Assignment: determine reported IC50 for the given molecules.

Quick one: IC50 of Cc1ccc(C(=O)N2CCC(O)(Cn3cnc4c(cc(Cl)n4-c4ccc([C@@H]5CO[C@@H](C)CN5)cc4)c3=O)CC2)c(C)c1 ?
0.545 µM

Quick one: IC50 of C[C@H]1CN[C@H](c2ccc(-n3c(Cl)cc4c(=O)n(CC5(O)CCN(C(=O)C6(C)CC6)CC5)cnc43)cc2)CO1 (racemic) [Example 1] ?
0.03 µM

Quick one: IC50 of Cc1cc(-n2c(Cl)cc3c(=O)n(CC4(O)CCN(C(=O)[C@]5(C)C[C@H]5C(F)(F)F)CC4)cnc32)ccc1[C@H]1CO[C@H](C)CN1 (single isomer, unassigned) ?
0.038 µM

Numbers sourced from patent US20250122223A1.
